attribute measured: melting point

Query :: Input O=C(Nc1cccc(F)c1)[C@H]1O[C@@H]1C(=O)N(Cc1ccccc1)c1ccccc1 [Compound 4] , output reported melting point.
Result :: 180.5 to 182 °C

Query :: Quickly give me recorded melting point for O=C(Nc1nc2ccccc2s1)c1ccc(N(Cc2ccc(F)cc2)C(=O)[C@H]2O[C@@H]2C(=O)Nc2ccc([N+](=O)[O-])cc2)cc1 [Compound 24]
Result :: 203.5 to 204.2 °C

Query :: Give me measured melting point, please, for this compound: O=C(Nc1nc2ccccc2s1)c1ccc(N(Cc2ccc(F)cc2)C(=O)[C@H]2O[C@@H]2C(=O)Nc2nccs2)cc1 [Compound 32]
Result :: 216.4 to 217.2 °C

Query :: Input COC(=O)c1csc(NC(=O)[C@H]2O[C@@H]2C(=O)N(Cc2ccccc2)c2ccc(C(=O)Nc3nc4ccccc4s3)cc2)n1 [Compound 41] , output reported melting point.
Result :: 223.5 to 224.3 °C

Query :: Retrieve melting point measured for COc1ccc(NC(=O)[C@H]2O[C@@H]2C(=O)N(Cc2ccc(F)cc2)c2ccc(C(=O)Nc3nc4ccccc4s3)cc2)cc1OC [Compound 17] and print it.
Result :: 205.6 to 206.3 °C

Query :: Output melting point of O=C(Nc1cccc(Cl)c1)[C@H]1O[C@@H]1C(=O)N(Cc1ccccc1)c1ccccc1 [Compound 8]
Result :: 179.2 to 179.6 °C

Query :: Return the recorded melting point value; entry: O=C(Nc1nc2ccccc2s1)c1ccc(N(Cc2ccccc2)C(=O)[C@H]2O[C@@H]2C(=O)O)cc1 [Compound 38]
Result :: 198.6 to 199.3 °C
